- ASSAYED TARGET: Kir3.1/Kir3.4 (Homo sapiens) (UniProt P48549+P48544)
- ASSAY TEXT: Inhibition of GIRK-1/4 channel (unknown origin) expressed in HEK293 cells at 1 uM by automated patch clamp method relative to control
- Type: cell-based

STRUCTURE	ASSAYED TARGET	RESULT UNITS	inhibition
C=C1CC[C@@H](OC(=O)/C=C/c2ccccc2)C(C)(C)/C=C/[C@H](C)C(=O)[C@@]2(O)C[C@H](C)[C@H](OC(=O)/C=C/c3ccccc3)[C@@H]2[C@H]1OC(C)=O	Kir3.1/Kir3.4 (Homo sapiens) (UniProt P48549+P48544)	%	22.2
CC(=O)O[C@H]1[C@@H](C)/C=C/C(C)(C)[C@H](O)[C@@H](O)[C@@H](O)/C(C)=C/[C@H]2[C@@H](OC(=O)c3ccccc3)[C@@H](C)C[C@@]21O	Kir3.1/Kir3.4 (Homo sapiens) (UniProt P48549+P48544)	%	15.7
CC(=O)OCC(=O)O[C@@H]1[C@H]2[C@@H](OC(=O)c3ccccc3)[C@@H](C)C[C@]2(O)[C@@H](OC(C)=O)[C@]2(C)C[C@@]1(OC(C)=O)C[C@H]1C(=O)C(C)(C)C[C@@H]12	Kir3.1/Kir3.4 (Homo sapiens) (UniProt P48549+P48544)	%	17.7

* * *

- ASSAYED TARGET: Kir3.1/Kir3.4 (Homo sapiens) (UniProt P48549+P48544)
- ASSAY TEXT: Inhibition of GIRK-1/4 channel (unknown origin) expressed in HEK293 cells at 1 uM by automated patch clamp method relative to control
- Assay type: cell-based

MOLECULE	inhibition (%)
C/C=C(/C)C(=O)OCC1(C)[C@H]2[C@@H]3C=C(COC(C)=O)[C@@H](O)[C@]4(O)[C@@H](OC(=O)/C(C)=C\C)C(C)=C[C@]4(C3=O)[C@H](C)C[C@H]21 (some centres undefined)	16.4
CC(=O)O[C@H]1/C(C)=C/[C@H]2[C@@H](OC(=O)c3ccccc3)[C@@H](C)C[C@]2(O)[C@@H](OC(C)=O)[C@@H](C)/C=C/C(C)(C)[C@H](O)[C@H]1O	11.2
C/C=C(\C)C(=O)O[C@H]1/C(C)=C/[C@H]2[C@@H](OC(=O)c3ccccc3)[C@@H](C)C[C@]2(O)[C@@H](OC(C)=O)[C@@H](C)/C=C/C(C)(C)[C@H](OC(C)=O)[C@H]1OC(C)=O	38.5

* * *

- ASSAYED TARGET: Kir3.1/Kir3.4 (Homo sapiens) (UniProt P48549+P48544)
- ASSAY TEXT: Inhibition of GIRK-1/4 channel (unknown origin) expressed in HEK293 cells at 1 uM by automated patch clamp method relative to control
- Assay type: cell-based

COMPOUND	inhibition / %
CC(=O)O[C@@H]1[C@@H](OC(C)=O)C(C)(C)/C=C/[C@H](C)[C@H](OC(C)=O)[C@@]2(O)C[C@H](C)[C@H](OC(=O)c3ccccc3)[C@@H]2/C=C(\C)[C@@H]1O	16.8
CC(=O)O[C@@H]1C[C@@H](OC(C)=O)C(C)(C)/C=C/[C@H](C)[C@H](OC(C)=O)[C@@]2(O)C[C@H](C)[C@H](OC(=O)c3ccccc3)[C@@H]2/C=C/1C [EUPHORNIN]	31.1
C/C=C(/C)C(=O)O[C@H]1C(C)=C[C@@]23C(=O)[C@@H](C=C(C)[C@@H](O)[C@]12O)[C@H]1[C@@H](C[C@H]3C)C1(C)C	23.8
CC(=O)O[C@@H]1[C@@H](OC(C)=O)C(C)(C)/C=C/[C@H](C)[C@H](OC(C)=O)[C@@]2(O)C[C@H](C)[C@H](OC(=O)c3ccccc3)[C@@H]2/C=C(\C)[C@@H]1OC(C)=O	33.8
C/C=C(/C)C(=O)OCC1(C)[C@H]2[C@@H]3C=C(C)[C@@H](O)[C@]4(O)[C@@H](OC(=O)/C(C)=C\C)C(C)=C[C@]4(C3=O)[C@H](C)C[C@H]21 (stereo not given in full)	43.9
CC(=O)O[C@@H]1[C@@H](OC(C)=O)C(C)(C)/C=C/[C@H](C)[C@H](O)[C@@]2(OC(C)=O)C[C@H](C)[C@H](OC(=O)c3ccccc3)[C@@H]2/C=C(\C)[C@@H]1OC(C)=O	27.2
C/C=C(\C)C(=O)O[C@@H]1C[C@@H](OC(C)=O)C(C)(C)/C=C/[C@H](C)[C@H](OC(C)=O)[C@@]2(O)C[C@H](C)[C@H](OC(=O)c3ccccc3)[C@@H]2/C=C/1C	35.5
CC(=O)O[C@@H]1[C@@H](O)[C@@H](OC(C)=O)/C(C)=C/[C@H]2[C@@H](OC(=O)c3ccccc3)[C@@H](C)C[C@]2(O)[C@@H](OC(C)=O)[C@@H](C)/C=C/C1(C)C	16
C/C=C(\C)C(=O)O[C@H]1[C@@H](C)/C=C/C(C)(C)[C@H](OC(C)=O)[C@@H](OC(C)=O)[C@@H](O)/C(C)=C/[C@H]2[C@@H](OC(=O)c3ccccc3)[C@@H](C)C[C@@]21O	15.3
C/C=C(\C)C(=O)O[C@H]1/C(C)=C/[C@H]2[C@@H](OC(=O)c3ccccc3)[C@@H](C)C[C@]2(O)[C@@H](OC(=O)/C(C)=C/C)[C@@H](C)/C=C/C(C)(C)[C@H](OC(C)=O)[C@H]1OC(C)=O	23.5
